Sourced from ChEMBL document CHEMBL1909046

# Experimental target: Estrogen receptor beta (Homo sapiens, UniProt Q92731); note: in other assays of this panel Not Active means under 50% inhibition at 10 µM
# Sequence (Q92731 whole entry): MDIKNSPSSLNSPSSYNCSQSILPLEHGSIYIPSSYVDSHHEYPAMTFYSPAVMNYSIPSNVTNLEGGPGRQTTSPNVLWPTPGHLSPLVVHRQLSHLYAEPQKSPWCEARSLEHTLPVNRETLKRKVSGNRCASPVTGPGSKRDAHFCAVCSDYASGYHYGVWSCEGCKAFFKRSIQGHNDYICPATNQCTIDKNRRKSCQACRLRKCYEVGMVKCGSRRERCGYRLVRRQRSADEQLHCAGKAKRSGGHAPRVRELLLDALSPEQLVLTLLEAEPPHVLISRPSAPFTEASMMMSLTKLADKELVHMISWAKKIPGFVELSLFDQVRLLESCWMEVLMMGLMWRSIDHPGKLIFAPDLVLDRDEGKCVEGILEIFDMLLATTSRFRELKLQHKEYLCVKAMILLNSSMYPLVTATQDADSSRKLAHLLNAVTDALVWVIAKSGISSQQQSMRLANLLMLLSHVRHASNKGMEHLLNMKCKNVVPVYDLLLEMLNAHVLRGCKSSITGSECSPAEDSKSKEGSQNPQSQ
# Reported conditions: sf9
Measure name: IC50

>>> df
                                   compound  endpoint_value
0  COc1cc2c(c3oc(=O)c4c(c13)CCC4=O)[C@@H]1C=CO[C@@H]1O2      Not Active
1  CC(C)c1nc(CN(C)C(=O)N[C@H](C(=O)N[C@@H](Cc2ccccc2)C[C@H](O)[C@H](Cc2ccccc2)NC(=O)OCc2cncs2)C(C)C)cs1      Not Active
2  CCCCN1CCCCC1C(=O)Nc1c(C)cccc1C.Cl (configuration not stated) [BUPIVACAINE HYDROCHLORIDE]      Not Active
3  CC(=O)N1CCN(c2ccc(OCC3COC(Cn4ccnc4)(c4ccc(Cl)cc4Cl)O3)cc2)CC1 (configuration not stated)      Not Active
4  COc1ccc2[nH]c([S+]([O-])Cc3ncc(C)c(OC)c3C)nc2c1 (configuration not stated)      Not Active
5       Nc1c(CC(=O)O)cccc1C(=O)c1ccc(Br)cc1      Not Active
6  C[C@]12CC[C@@H]3c4ccc(OC(=O)c5ccccc5)cc4CC[C@H]3[C@@H]1CC[C@@H]2O [ESTRADIOL BENZOATE]      Not Active

###

# Experimental target: Cytochrome P450 1A2 (Homo sapiens); note: in other assays of this panel Not Active means under 50% inhibition at 10 µM
# Sequence (P05177 whole entry): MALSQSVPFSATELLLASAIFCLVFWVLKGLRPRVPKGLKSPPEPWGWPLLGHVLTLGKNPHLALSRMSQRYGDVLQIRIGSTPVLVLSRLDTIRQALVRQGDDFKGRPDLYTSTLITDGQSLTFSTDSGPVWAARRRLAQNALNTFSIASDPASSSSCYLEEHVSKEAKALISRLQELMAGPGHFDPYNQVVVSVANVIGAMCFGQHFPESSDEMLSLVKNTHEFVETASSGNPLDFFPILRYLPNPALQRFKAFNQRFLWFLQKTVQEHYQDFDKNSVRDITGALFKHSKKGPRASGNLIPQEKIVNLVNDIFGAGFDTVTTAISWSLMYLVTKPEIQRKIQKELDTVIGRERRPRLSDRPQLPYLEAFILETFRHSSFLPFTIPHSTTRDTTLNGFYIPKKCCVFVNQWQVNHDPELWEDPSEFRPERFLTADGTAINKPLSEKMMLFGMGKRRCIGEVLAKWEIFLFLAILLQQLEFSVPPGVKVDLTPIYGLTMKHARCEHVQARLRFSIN
# Reported conditions: bti-tn-5b1-4

Molecule	Experimental target	IC50
CC(=O)N[C@@H]1[C@H](Oc2c3cc4cc2Oc2ccc(cc2Cl)[C@@H](O[C@@H]2O[C@@H](CO)[C@@H](O)[C@H](O)[C@@H]2NC(C)=O)[C@@H]2NC(=O)[C@H](NC(=O)[C@@H]4NC(=O)[C@H]4NC(=O)[C@@H](Cc5ccc(c(Cl)c5)O3)NC(=O)[C@H](N)c3ccc(O)c(c3)Oc3cc(O)cc4c3)c3ccc(O)c(c3)-c3c(O[C@H]4O[C@H](CO)[C@@H](O)[C@@H](O)[C@@H]4O)cc(O)cc3[C@@H](C(=O)O)NC2=O)O[C@@H](CO)[C@@H](O)[C@@H]1O	Cytochrome P450 1A2 (Homo sapiens)	Not Active
CN1C(C(=O)Nc2ccccn2)=C(O)c2sccc2S1(=O)=O [TENOXICAM]	Cytochrome P450 1A2 (Homo sapiens)	Not Active
COc1ccc2c(c1)c(CC(=O)O)c(C)n2C(=O)c1ccc(Cl)cc1 [INDOMETHACIN]	Cytochrome P450 1A2 (Homo sapiens)	Not Active

###

# Experimental target: Alpha-1D adrenergic receptor (Homo sapiens, UniProt P25100); note: in other assays of this panel Not Active means under 50% inhibition at 10 µM
# Sequence (P25100 whole entry): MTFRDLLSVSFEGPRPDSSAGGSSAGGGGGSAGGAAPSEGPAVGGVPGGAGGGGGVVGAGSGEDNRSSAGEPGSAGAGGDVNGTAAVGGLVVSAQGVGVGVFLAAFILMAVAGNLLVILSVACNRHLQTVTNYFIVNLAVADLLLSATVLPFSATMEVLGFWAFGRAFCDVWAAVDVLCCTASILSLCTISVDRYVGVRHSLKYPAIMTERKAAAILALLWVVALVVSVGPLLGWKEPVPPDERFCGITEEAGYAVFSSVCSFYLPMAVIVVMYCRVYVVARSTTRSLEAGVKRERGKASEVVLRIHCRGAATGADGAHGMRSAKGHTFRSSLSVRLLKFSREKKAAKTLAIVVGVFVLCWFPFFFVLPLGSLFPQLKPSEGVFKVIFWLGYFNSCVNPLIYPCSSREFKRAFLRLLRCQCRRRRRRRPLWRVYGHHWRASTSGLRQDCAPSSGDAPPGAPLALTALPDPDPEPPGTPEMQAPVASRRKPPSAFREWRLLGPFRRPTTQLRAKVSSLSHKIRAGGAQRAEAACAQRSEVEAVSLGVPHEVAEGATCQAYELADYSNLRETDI
# Assay type: cell membranes, HEK293, Membrane
# Reported conditions: hek293

Compound	Experimental target	IC50
C[C@]12CC[C@@H]3c4ccc(O)cc4CC[C@H]3[C@@H]1CC[C@@H]2O	Alpha-1D adrenergic receptor (Homo sapiens, UniProt P25100)	Not Active
S=C=Nc1cccc2ccccc12 [1-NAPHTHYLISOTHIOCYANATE]	Alpha-1D adrenergic receptor (Homo sapiens, UniProt P25100)	Not Active
CC1(C)O[C@@H]2C[C@H]3[C@@H]4C[C@H](F)C5=CC(=O)C=C[C@]5(C)[C@H]4[C@@H](O)C[C@]3(C)[C@]2(C(=O)CO)O1 [FLUNISOLIDE]	Alpha-1D adrenergic receptor (Homo sapiens, UniProt P25100)	Not Active
NC(=O)NO [HYDROXYUREA]	Alpha-1D adrenergic receptor (Homo sapiens, UniProt P25100)	Not Active
C[C@H]1O[C@@H](O[C@H]2[C@@H](O)C[C@H](O[C@H]3[C@@H](O)C[C@H](O[C@H]4CC[C@@]5(C)[C@H](CC[C@@H]6[C@@H]5CC[C@]5(C)[C@@H](C7=CC(=O)OC7)CC[C@]65O)C4)O[C@@H]3C)O[C@@H]2C)C[C@H](O)[C@@H]1O	Alpha-1D adrenergic receptor (Homo sapiens, UniProt P25100)	Not Active
C[C@]1(Cn2ccnn2)[C@H](C(=O)O)N2C(=O)C[C@H]2S1(=O)=O	Alpha-1D adrenergic receptor (Homo sapiens, UniProt P25100)	Not Active
C[C@]12CC[C@@H]3c4ccc(OC(=O)c5ccccc5)cc4CC[C@H]3[C@@H]1CC[C@@H]2O [ESTRADIOL BENZOATE]	Alpha-1D adrenergic receptor (Homo sapiens, UniProt P25100)	Not Active
CC[C@@H](CO)NCCN[C@@H](CC)CO	Alpha-1D adrenergic receptor (Homo sapiens, UniProt P25100)	Not Active
CC(=O)Nc1ccc(O)cc1	Alpha-1D adrenergic receptor (Homo sapiens, UniProt P25100)	Not Active
Cc1cc2cc3c(C)cc(=O)oc3c(C)c2o1	Alpha-1D adrenergic receptor (Homo sapiens, UniProt P25100)	Not Active
CC1=C(C(=O)O)N2C(=O)[C@@H](NC(=O)[C@H](N)c3ccccc3)[C@H]2SC1 [CEPHALEXIN ANHYDROUS]	Alpha-1D adrenergic receptor (Homo sapiens, UniProt P25100)	Not Active
Nc1ccn([C@@H]2CS[C@H](CO)O2)c(=O)n1	Alpha-1D adrenergic receptor (Homo sapiens, UniProt P25100)	Not Active
COc1cccc2c1C(=O)c1c(O)c3c(c(O)c1C2=O)C[C@@](O)(C(=O)CO)C[C@@H]3O[C@H]1C[C@H](N)[C@@H](O)[C@H](C)O1 [EPIRUBICIN]	Alpha-1D adrenergic receptor (Homo sapiens, UniProt P25100)	Not Active
Cc1cccc(Nc2ccncc2S(=O)(=O)NC(=O)NC(C)C)c1 [TORSEMIDE]	Alpha-1D adrenergic receptor (Homo sapiens, UniProt P25100)	Not Active
CCC1=C[C@@H]2CN(C1)Cc1c([nH]c3ccccc13)[C@@](C(=O)OC)(c1cc3c(cc1OC)N(C)[C@H]1[C@@](O)(C(=O)OC)[C@H](OC(C)=O)[C@]4(CC)C=CCN5CC[C@]31[C@@H]54)C2	Alpha-1D adrenergic receptor (Homo sapiens, UniProt P25100)	Not Active
COC(=O)C1=C(C)NC(C)=C(C(=O)OCC(C)C)C1c1ccccc1[N+](=O)[O-] (centres undefined)	Alpha-1D adrenergic receptor (Homo sapiens, UniProt P25100)	Not Active
Cc1ccc(S(=O)(=O)NC(=O)NN2CC3CCCC3C2)cc1 (centres undefined) [GLICLAZIDE]	Alpha-1D adrenergic receptor (Homo sapiens, UniProt P25100)	Not Active
CC[C@]1(O)C[C@@H]2CN(CCc3c([nH]c4ccccc34)[C@@](C(=O)OC)(c3cc4c(cc3OC)N(C)[C@H]3[C@@](O)(C(=O)OC)[C@H](OC(C)=O)[C@]5(CC)C=CCN6CC[C@]43[C@@H]65)C2)C1	Alpha-1D adrenergic receptor (Homo sapiens, UniProt P25100)	Not Active
CC(=O)N[C@@H]1[C@H](Oc2c3cc4cc2Oc2ccc(cc2Cl)[C@@H](O[C@@H]2O[C@@H](CO)[C@@H](O)[C@H](O)[C@@H]2NC(C)=O)[C@@H]2NC(=O)[C@H](NC(=O)[C@@H]4NC(=O)[C@H]4NC(=O)[C@@H](Cc5ccc(c(Cl)c5)O3)NC(=O)[C@H](N)c3ccc(O)c(c3)Oc3cc(O)cc4c3)c3ccc(O)c(c3)-c3c(O[C@H]4O[C@H](CO)[C@@H](O)[C@@H](O)[C@@H]4O)cc(O)cc3[C@@H](C(=O)O)NC2=O)O[C@@H](CO)[C@@H](O)[C@@H]1O	Alpha-1D adrenergic receptor (Homo sapiens, UniProt P25100)	Not Active
